Assay: Pharmacokinetic study of abiraterone in hormone refractory prostate cancer patients, oral doses 250-2000 mg/day, fasted
Assay type: in vivo, human
Conditions: male, human; mean; 1000 mg/day abiraterone acetate oral, fasted; plasma; read-out: AUCINF_obs
measured property: AUC(0-inf) (µM·h)
Value expressed in µM·h; do not type the unit.

What AUC(0-inf) value was documented for this compound, C[C@]12CC[C@H](O)CC1=CC[C@@H]1[C@@H]2CC[C@]2(C)C(c3cccnc3)=CC[C@@H]12 ?
5.32

###

Assay: Food effect PK study, two single oral 1000 mg doses of abiraterone acetate, fed (high fat) vs fasted
Type: in vivo, human
Conditions: human, plasma, oral, 1000 mg, Patient 13; Fasted
measured property: Tmax (h)
Value expressed in h; do not type the unit.

What Tmax value was documented for this compound, C[C@]12CC[C@H](O)CC1=CC[C@@H]1[C@@H]2CC[C@]2(C)C(c3cccnc3)=CC[C@@H]12 [Abiraterone] ?
1.03
